- Tested on: Staphylococcus epidermidis
- METHOD: Antibacterial activity against Staphylococcus epidermidis ATCC 14990 after 24 hrs by broth dilution assay
- Assay type: functional
METRIC_NAME: MIC

The following compounds have reported results that may help.
- COc1c2c(c(O)c3c1[C@@H](C)CO3)[C@@]13CCCC(C)(C)[C@@H]1C[C@@H]2OC3=O: >40 µg/mL
- CC(C)C1=CC2=C(C(=O)C1=O)[C@@]13CCCC(C)(C)[C@@H]1C[C@@H]2OC3=O: >40 µg/mL
- COC(=O)C1=C2C=C(C(C)C)COC2(O)[C@H]2OC(=O)[C@@]13CCCC(C)(C)[C@H]23 (some centres undefined): >40 µg/mL
- Cc1coc2c1C(=O)C1=C(C2=O)[C@@]23CCCC(C)(C)[C@@H]2C[C@@H]1OC3=O: >40 µg/mL
- C[C@H]1COc2c1cc1c(c2O)[C@@]23CCCC(C)(C)[C@@H]2C[C@@H]1OC3=O: >40 µg/mL

Next item in the queue.
Lab book: MIC of CC(=O)OC[C@H](C)C1=C(OC(C)=O)C(O)C2=C(C1=O)[C@@H]1C[C@H]3C(C)(C)CCC[C@]23C(=O)O1 (some centres undefined) noted as >40 µg/mL
